# target.system: Steroidogenic factor 1 (Homo sapiens, UniProt Q13285)
# Sequence (Q13285 whole entry): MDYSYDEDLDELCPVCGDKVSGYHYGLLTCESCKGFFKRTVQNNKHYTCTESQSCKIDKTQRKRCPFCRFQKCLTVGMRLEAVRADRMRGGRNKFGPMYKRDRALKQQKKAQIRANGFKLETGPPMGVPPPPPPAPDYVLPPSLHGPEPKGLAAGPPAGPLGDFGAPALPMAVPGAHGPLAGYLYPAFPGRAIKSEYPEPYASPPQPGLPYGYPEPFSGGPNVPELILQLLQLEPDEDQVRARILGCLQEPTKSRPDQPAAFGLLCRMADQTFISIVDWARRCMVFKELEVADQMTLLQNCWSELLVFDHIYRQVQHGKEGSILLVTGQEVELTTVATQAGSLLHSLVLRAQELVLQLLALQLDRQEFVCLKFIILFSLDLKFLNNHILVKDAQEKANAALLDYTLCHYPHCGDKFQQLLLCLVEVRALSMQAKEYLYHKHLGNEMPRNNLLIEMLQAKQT
# protocol.notes: Binding affinity to human SF1 relative to 3-Hexyl-1-phenylamino-2-phenyl-cis-bicyclo[3.3.0]oct-2-ene1 by FRET-based peptide recruitment assay
test.readout: Efficacy (%)

Answered examples (3):
c1ccc(N[C@@]23CCC[C@@H]2CC(c2ccccc2)=C3c2ccccc2)cc1 (relative stereo): 55
CC/C=C(\CC)C1=C(c2ccccc2)[C@]2(Nc3ccccc3)CCC[C@@H]2C1 (relative stereo): 80
CCC/C=C(\CCC)C1=C(c2ccc3ccccc3c2)[C@]2(Nc3ccccc3)CCC[C@@H]2C1 (relative stereo): 30

P: CCC/C=C(\CCC)C1=C(c2ccc(Br)cc2)[C@]2(Nc3ccccc3)CCC[C@@H]2C1 (relative stereo)
Q: c1ccc(N[C@@]23CCC[C@@H]2CC(C2CCCCC2)=C3c2ccccc2)cc1 (relative stereo)
R: CCCCCCCCC(C)C1=C(c2ccccc2)[C@]2(Nc3ccccc3)CCC[C@@H]2C1 (relative stereo)
S: CCCCCCC1=C(c2ccccc2)[C@]2(Nc3cccc(C)c3C)CCC[C@@H]2C1 (relative stereo)
Enquiry: hey, can you rank those molecules up there by Efficacy? biggest number first please Would you mind listing the labels in the order requested?
Return: R, Q, P, S
